- Target Under Test: UniProt Q8I5R7
- Sequence (Q8I5R7 whole entry): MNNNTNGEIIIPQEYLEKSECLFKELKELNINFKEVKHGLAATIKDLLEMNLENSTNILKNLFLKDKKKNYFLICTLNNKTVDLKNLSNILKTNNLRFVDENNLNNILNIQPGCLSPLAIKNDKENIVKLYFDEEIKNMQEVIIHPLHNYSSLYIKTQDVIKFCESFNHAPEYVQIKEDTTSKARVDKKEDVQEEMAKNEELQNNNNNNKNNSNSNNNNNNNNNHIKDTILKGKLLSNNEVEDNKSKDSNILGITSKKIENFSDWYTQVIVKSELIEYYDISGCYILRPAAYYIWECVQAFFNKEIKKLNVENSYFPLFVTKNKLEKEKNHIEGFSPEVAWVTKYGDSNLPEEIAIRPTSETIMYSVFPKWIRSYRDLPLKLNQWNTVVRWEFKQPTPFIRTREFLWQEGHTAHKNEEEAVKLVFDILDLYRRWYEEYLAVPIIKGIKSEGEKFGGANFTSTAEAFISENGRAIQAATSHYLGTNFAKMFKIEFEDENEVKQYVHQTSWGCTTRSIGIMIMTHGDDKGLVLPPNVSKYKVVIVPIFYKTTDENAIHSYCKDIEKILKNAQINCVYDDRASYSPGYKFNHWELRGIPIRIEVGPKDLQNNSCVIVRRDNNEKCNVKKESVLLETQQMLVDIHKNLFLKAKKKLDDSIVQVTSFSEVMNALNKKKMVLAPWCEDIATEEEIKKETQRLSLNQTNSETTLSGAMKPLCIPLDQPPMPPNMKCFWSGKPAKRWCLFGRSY
- Method Description: IC50 for competition of protein binding to Kinobeads;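 also: native unpurified kinases from lysate captured on beads bearing immobilized kinase inhibitors, with bead-bound kinases quantified by mass spectrometry across compound doses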
- Particulars: assay detail: Kinobeads competition in P. falciparum blood-stage lysate
Measured Quantity: IC50

According to the records, this compound O=c1[nH]c2ccc(Cl)cc2c(NC2CN3CCC2CC3)c1-c1nc2ccccc2[nH]1 (stereo unspecified) displays IC50 of > 20 µM

====

- Target Under Test: UniProt Q8IBY4
- Method Description: IC50 for competition of protein binding to Kinobeads
- Particulars: assay detail: Kinobeads competition in P. falciparum blood-stage lysate
pIC50: −log10 of the molar value.
Measured Quantity: pIC50

# pIC50 (molecule: O=c1[nH]c2ccc(Cl)cc2c(NC2CN3CCC2CC3)c1-c1nc2ccccc2[nH]1 (stereo unspecified) ) is < 4.70

====

- Target Under Test: UniProt Q8I4U5
- Method Description: IC50 for competition of protein binding to Kinobeads
- Particulars: assay detail: Kinobeads competition in P. falciparum blood-stage lysate
Measured Quantity: IC50

Query O=c1[nH]c2ccc(Cl)cc2c(NC2CN3CCC2CC3)c1-c1nc2ccccc2[nH]1 (stereo unspecified) yields IC50 of > 20 µM

====

- Target Under Test: UniProt Q8IKS4
- Method Description: IC50 for competition of protein binding to Kinobeads
- Particulars: assay detail: Kinobeads competition in P. falciparum blood-stage lysate
pIC50: −log10 of the molar value.
Measured Quantity: pIC50

# pIC50 (compound: O=c1[nH]c2ccc(Cl)cc2c(NC2CN3CCC2CC3)c1-c1nc2ccccc2[nH]1 (stereo unspecified) ) is < 4.70

====

- Target Under Test: UniProt Q8I3F1
- Method Description: IC50 for competition of protein binding to Kinobeads
- Particulars: assay detail: Kinobeads competition in P. falciparum blood-stage lysate
pIC50: −log10 of the molar value.
Measured Quantity: pIC50

O=c1[nH]c2ccc(Cl)cc2c(NC2CN3CCC2CC3)c1-c1nc2ccccc2[nH]1 (stereo unspecified) on UniProt Q8I3F1 gives pIC50 = < 4.70

====

- Target Under Test: UniProt O97249
- Sequence (O97249 whole entry): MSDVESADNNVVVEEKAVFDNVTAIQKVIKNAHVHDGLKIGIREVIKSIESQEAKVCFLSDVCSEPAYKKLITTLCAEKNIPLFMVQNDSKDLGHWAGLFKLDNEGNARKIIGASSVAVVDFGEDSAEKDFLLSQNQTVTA
- Method Description: IC50 for competition of protein binding to Kinobeads
- Particulars: assay detail: Kinobeads competition in P. falciparum blood-stage lysate
pIC50: −log10 of the molar value.
Measured Quantity: pIC50

The recorded pIC50 for O=c1[nH]c2ccc(Cl)cc2c(NC2CN3CCC2CC3)c1-c1nc2ccccc2[nH]1 (stereo unspecified) is < 4.70

====

- Target Under Test: UniProt Q8I5A6
- Method Description: IC50 for competition of protein binding to Kinobeads
- Particulars: assay detail: Kinobeads competition in P. falciparum blood-stage lysate
pIC50: −log10 of the molar value.
Measured Quantity: pIC50

Entry O=c1[nH]c2ccc(Cl)cc2c(NC2CN3CCC2CC3)c1-c1nc2ccccc2[nH]1 (stereo unspecified) [CHIR-124] , pIC50 reported as < 4.70

====

- Target Under Test: UniProt Q8I2J3
- Sequence (whole entry): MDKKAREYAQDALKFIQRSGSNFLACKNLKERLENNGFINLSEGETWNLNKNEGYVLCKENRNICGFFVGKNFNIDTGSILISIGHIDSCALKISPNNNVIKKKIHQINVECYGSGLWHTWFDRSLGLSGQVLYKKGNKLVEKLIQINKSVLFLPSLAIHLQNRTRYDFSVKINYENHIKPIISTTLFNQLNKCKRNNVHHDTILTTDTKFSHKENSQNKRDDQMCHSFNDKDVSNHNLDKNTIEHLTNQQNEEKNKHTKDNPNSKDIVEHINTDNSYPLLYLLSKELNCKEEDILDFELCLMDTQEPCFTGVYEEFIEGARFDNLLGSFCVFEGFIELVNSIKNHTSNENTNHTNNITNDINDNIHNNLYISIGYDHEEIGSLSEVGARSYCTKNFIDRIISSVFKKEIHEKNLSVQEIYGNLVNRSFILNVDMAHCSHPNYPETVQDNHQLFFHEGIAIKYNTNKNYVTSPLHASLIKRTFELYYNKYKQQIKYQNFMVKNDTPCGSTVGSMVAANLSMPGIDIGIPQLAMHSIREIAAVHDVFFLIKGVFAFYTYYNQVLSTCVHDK
- Method Description: IC50 for competition of protein binding to Kinobeads
- Particulars: assay detail: Kinobeads competition in P. falciparum blood-stage lysate
Measured Quantity: IC50

Entry O=c1[nH]c2ccc(Cl)cc2c(NC2CN3CCC2CC3)c1-c1nc2ccccc2[nH]1 (stereo unspecified) [CHIR-124] — recorded IC50 = > 20 µM
